assay_overview: NCI Yeast Anticancer Drug Screen. Data for the cln2 rad14 strain (AID 165);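 further: 0% = growth equal to vehicle treated cultures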
condition_context: S. cerevisiae cln2 rad14 strain, at 5.0 µM (retest, dose inferred, filed as 0.5), stronger effect = higher value
About 79,000 compounds went through this panel and 15% of them were active in at least one assay; those are over-represented in the sample as a whole.

molecule: CCCCCCCCCC(=O)[O][Hg][c]1ccccc1
unit_annotation: %
growth inhibition: 99

molecule: CCC1CN1P(=O)(Oc1ccccc1)N1CC1CC (stereo not given)
unit_annotation: %
growth inhibition: -11

molecule: CC[C@@H]1C(=O)OC[C@@H]1Cc1cncn1C
unit_annotation: %
growth inhibition: -27

molecule: O=NN(CC(=O)O)c1ncccn1
unit_annotation: %
growth inhibition: -6

molecule: C/C(=N\Nc1ccccc1)C(CN(C)C)C(c1ccccc1)c1c(O)c2ccccc2oc1=O (stereo not given)
unit_annotation: %
growth inhibition: 5

molecule: CN(C)C(=S)Nc1nnc(NC23CC4CC(CC(C4)C2)C3)s1
unit_annotation: %
growth inhibition: -22

molecule: c1cc[c]([Pb]([S]c2nc3ccccc3[nH]2)([c]2ccccc2)[c]2ccccc2)cc1
unit_annotation: %
growth inhibition: 99

molecule: O=c1s[se]c2ccccc12
unit_annotation: %
growth inhibition: 21

molecule: CCOP(=O)(OCC)/C(C#N)=C/c1ccc(Br)cc1
unit_annotation: %
growth inhibition: -20

molecule: O=C1OCC2CC3C4C=CC(C4)C3C12 (stereo not given)
unit_annotation: %
growth inhibition: 4

molecule: CC(=O)OC1CC[C@@]2(C)C(=CC[C@@H]3[C@@H]2CC[C@]2(C)C(OC(C)=O)[C@H](n4ccnc4)C[C@@H]32)C1 (stereo not given in full)
unit_annotation: %
growth inhibition: 9

molecule: CC(=O)[O][Hg][c]1c(C)c(C)cc(C)c1C
unit_annotation: %
growth inhibition: 99

molecule: O=[N+]([O-])/C=C\c1ccc2c(c1)OCO2
unit_annotation: %
growth inhibition: 100

molecule: CCOC(=O)c1ccc(N=Cc2ccc(N(CCCl)CCCl)cc2C)cc1
unit_annotation: %
growth inhibition: -8

molecule: C[CH2][Sn]([Cl])([CH2]C)[CH2]C
unit_annotation: %
growth inhibition: -6

molecule: COC12C(COC(N)=O)C3=C(C(=O)C(C)=C(NC(C)C)C3=O)N1CC1NC12 (stereo not given)
unit_annotation: %
growth inhibition: 2

molecule: N#CSCC(=O)O (tested in a mixture with another compound)
unit_annotation: %
growth inhibition: -4

molecule: O=[As]c1ccccc1O (stereo not given)
unit_annotation: %
growth inhibition: -9

molecule: C#CC[As+](c1ccccc1)(c1ccccc1)c1ccccc1
unit_annotation: %
growth inhibition: 37

molecule: CC(Cc1ccc2c(c1)OCO2)NN (stereo not given)
unit_annotation: %
growth inhibition: -5

molecule: N#CC(C#N)=Cc1ccc(Cl)o1
unit_annotation: %
growth inhibition: -6

molecule: Nc1ccccc1C(=O)c1ccccc1
unit_annotation: %
growth inhibition: 4

molecule: CCC[CH2][Sn]1([CH2]CCC)[O]CC(COc2c(Cl)cc(Cl)cc2Cl)[O]1 (stereo not given)
unit_annotation: %
growth inhibition: 89

molecule: CC12CCC(=O)C=C1CCC1C2CCC2(C)C(O[Si](C)(C)OC3CCC4C5CCC6=CC(=O)CCC6(C)C5CCC34C)CCC12 (stereo not given)
unit_annotation: %
growth inhibition: 1

molecule: COCCOCCOC(=O)CBr
unit_annotation: %
growth inhibition: 1

molecule: O=C(N/N=C/c1cc(Br)cc(Br)c1[O-])c1ccccc1O.O=C(N/N=C/c1cc(Br)cc(Br)c1[O-])c1ccccc1O.[Co+2]
unit_annotation: %
growth inhibition: 82

molecule: C[N+](C)(C)CC1CCCC1=O (stereo not given)
unit_annotation: %
growth inhibition: 11

molecule: [Cl][Sn]([c]1ccccc1)([c]1ccccc1)[c]1ccccc1
unit_annotation: %
growth inhibition: 99

molecule: CCOC(=O)NP(=O)(NNc1ccccc1)NNc1ccccc1
unit_annotation: %
growth inhibition: 84

molecule: CC(=O)NNc1ccccc1
unit_annotation: %
growth inhibition: 2

molecule: O=[N+]([O-])/C=C/c1cccc([N+](=O)[O-])c1
unit_annotation: %
growth inhibition: 35

molecule: N#CC(C#N)=Cc1c(O)ccc2ccccc12
unit_annotation: %
growth inhibition: 18

molecule: CC(=O)[O-].O=[N+]([O-])c1ccc([O-])c(C=NCCN=Cc2cc([N+](=O)[O-])ccc2[O-])c1.[Mn+3]
unit_annotation: %
growth inhibition: 19

molecule: CCC[CH2][Sn]1([CH2]CCC)[O]c2ccccc2[O]1
unit_annotation: %
growth inhibition: 0

molecule: N#CC(C#N)=NNc1cccc(Cl)c1Cl
unit_annotation: %
growth inhibition: 71

molecule: C/C(CC(=O)Nc1ccc([N+](=O)[O-])cc1)=N\Nc1ccc([N+](=O)[O-])cc1[N+](=O)[O-]
unit_annotation: %
growth inhibition: 33

molecule: COc1cc(/C=C/[N+](=O)[O-])cc(Br)c1OC
unit_annotation: %
growth inhibition: 55

molecule: CN(C)c1ccc(/C=C/c2cc3scc(-c4ccccc4)[n+]3c3ccccc23)cc1
unit_annotation: %
growth inhibition: -3

molecule: CC(=O)OC1CCC2C3CCC4C(F)C(=O)C(F)(F)CC4(C)C3CCC12C (stereo not given)
unit_annotation: %
growth inhibition: -3

molecule: O=[N+]([O-])/C=C/c1cccc(F)c1
unit_annotation: %
growth inhibition: 10
